B1: TPR t1 (parent)
chain: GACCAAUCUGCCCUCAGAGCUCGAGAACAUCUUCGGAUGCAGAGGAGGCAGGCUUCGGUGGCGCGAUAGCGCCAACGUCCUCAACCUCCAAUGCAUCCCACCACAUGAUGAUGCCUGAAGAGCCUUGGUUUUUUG

variants of: B1; test: polymerase ribozyme fitness, log enrichment relative to wild type (log ratio); higher = more active; in vitro selection for triplet polymerase activity
Label rule met when polymerase ribozyme fitness (log ratio) is at or above -1; otherwise label rule not met.

Use these answered entries as a reference point.
[[record]]
mutant_name = "C3U C56G"
class_label = "rule met"

[[record]]
mutant_name = "G63U C89A G113A G120C U129G"
class_label = "rule not met"

[[record]]
mutant_name = "A6C C8G U92G A121C C123G"
class_label = "rule met"

[[record]]
mutant_name = "C20A A46U G52A"
class_label = "rule not met"

[[record]]
mutant_name = "G35C C79U C104A C124A"
class_label = "rule not met"

[[record]]
mutant_name = "G48A G69U"
class_label = "rule met"

[[record]]
mutant_name = "G42A G61C C114U G117C"
class_label = "rule not met"

[[record]]
mutant_name = "G63A G128U"
class_label = "rule not met"


Decide: is the reported value of polymerase ribozyme fitness (log ratio) for G61A U112G equal to or greater than -1?
rule met

Decide: is the reported value of polymerase ribozyme fitness (log ratio) for A5C G48A C82G equal to or greater than -1?
rule not met

Decide: is the reported value of polymerase ribozyme fitness (log ratio) for C20A G51C C56A C79U U106A A121U equal to or greater than -1?
rule not met
